Exercise: state measured IC50 for each of the molecules provided.
System: H1047R PIK3CA enzyme (Homo sapiens, UniProt P42336, H1047R)
Sequence (P42336 whole entry H1047R): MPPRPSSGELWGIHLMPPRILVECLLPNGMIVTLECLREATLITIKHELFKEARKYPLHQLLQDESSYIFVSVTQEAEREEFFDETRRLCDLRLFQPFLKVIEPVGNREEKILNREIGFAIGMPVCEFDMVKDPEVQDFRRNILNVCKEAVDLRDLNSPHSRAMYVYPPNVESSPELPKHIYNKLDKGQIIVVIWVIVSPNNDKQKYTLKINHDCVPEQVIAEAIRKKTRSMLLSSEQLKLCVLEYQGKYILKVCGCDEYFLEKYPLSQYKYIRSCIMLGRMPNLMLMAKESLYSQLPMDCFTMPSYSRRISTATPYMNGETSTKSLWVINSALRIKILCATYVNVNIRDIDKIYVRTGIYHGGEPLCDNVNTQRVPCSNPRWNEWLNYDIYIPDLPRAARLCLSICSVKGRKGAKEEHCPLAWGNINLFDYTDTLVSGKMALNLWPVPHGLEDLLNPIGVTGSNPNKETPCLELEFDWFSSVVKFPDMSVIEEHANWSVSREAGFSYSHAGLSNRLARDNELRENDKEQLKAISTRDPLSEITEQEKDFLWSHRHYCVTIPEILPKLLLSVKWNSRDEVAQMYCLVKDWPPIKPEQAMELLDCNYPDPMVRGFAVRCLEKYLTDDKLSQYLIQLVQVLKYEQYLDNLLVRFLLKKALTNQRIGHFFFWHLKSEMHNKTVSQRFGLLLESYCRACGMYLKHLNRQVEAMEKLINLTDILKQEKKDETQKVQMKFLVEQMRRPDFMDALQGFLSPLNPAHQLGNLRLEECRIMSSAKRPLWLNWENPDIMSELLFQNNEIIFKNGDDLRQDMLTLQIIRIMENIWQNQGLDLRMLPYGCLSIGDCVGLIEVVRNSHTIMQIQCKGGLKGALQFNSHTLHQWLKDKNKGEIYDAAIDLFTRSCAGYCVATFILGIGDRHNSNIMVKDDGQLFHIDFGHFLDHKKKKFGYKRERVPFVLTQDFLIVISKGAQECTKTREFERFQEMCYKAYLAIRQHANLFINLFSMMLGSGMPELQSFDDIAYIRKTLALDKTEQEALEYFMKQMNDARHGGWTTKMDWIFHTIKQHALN
Sequence (P27986 whole entry partner): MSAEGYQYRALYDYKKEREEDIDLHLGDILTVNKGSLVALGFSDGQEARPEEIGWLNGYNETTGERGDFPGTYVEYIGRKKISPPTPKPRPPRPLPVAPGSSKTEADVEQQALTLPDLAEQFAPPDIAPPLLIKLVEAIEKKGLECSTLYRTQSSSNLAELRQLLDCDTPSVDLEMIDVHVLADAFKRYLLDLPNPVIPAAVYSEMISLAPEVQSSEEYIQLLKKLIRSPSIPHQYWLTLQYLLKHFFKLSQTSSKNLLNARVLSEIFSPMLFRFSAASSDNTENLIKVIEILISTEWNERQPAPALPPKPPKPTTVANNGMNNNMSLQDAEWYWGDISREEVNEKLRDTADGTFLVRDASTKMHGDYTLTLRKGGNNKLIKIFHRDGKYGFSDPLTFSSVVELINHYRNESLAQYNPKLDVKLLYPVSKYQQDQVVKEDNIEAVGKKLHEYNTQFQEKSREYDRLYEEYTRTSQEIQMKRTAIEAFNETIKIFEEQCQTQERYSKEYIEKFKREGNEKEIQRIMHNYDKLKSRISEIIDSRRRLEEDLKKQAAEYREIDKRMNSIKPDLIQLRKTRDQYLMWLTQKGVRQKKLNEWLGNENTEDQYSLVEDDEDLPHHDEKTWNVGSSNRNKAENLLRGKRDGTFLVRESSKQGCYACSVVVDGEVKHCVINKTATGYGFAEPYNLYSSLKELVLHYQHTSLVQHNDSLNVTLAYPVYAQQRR
Assay Text: ADP-Glo Biochemical PIK3CA Kinase Assay

Request: Notebook entry, H1047R PIK3CA enzyme (Homo sapiens, UniProt P42336, H1047R) assay: IC50 of CC(C)[C@]1(O)CN(C(=O)Nc2cccc3c2[C@H](c2cc(F)ccc2Cl)NC3=O)c2ccc(F)cc21 (single isomer, unassigned) [Compound I-2453] = ?
Response: 1000 to 10000 nM

Request: # repeat for CO[C@@H]1CC[C@H]1Nc1cc(NC(=O)c2cc(F)cc(C(F)(F)F)c2)c2c(c1)C(=O)NC2c1cc(F)ccc1Cl (mixture of isomers) [Compound I-780]
Response: ≤ 100 nM

Then there is this molecule:
Request: Notebook entry, H1047R PIK3CA enzyme (Homo sapiens, UniProt P42336, H1047R) assay: IC50 of N#Cc1cc(NC(=O)N2CC(O)(C(F)(F)F)c3ccccc32)c2c(c1)C(=O)NC2c1cc(F)ccc1Cl (stereo not drawn) [Compound I-2473] = ?
Response: ≤ 100 nM

====

Exercise: state measured IC50 for each of the compounds provided.
System: H1047R PIK3CA enzyme (Homo sapiens, UniProt P42336, H1047R)
Assay Text: ADP-Glo Biochemical PIK3CA Kinase Assay

// known answers, use as guide
Request: Consider the compound shown here: O=C(Nc1cccc2c1C(c1nc(C(F)(F)F)cs1)NC2=O)c1cc(F)cc(C(F)(F)F)c1 (stereo not drawn) What is its recorded IC50?
Response: 10000 to 100000 nM

Request: # repeat for O=C(Nc1cc(N2CCn3ncnc3C2)cc2c1C(c1cc(F)ccc1Cl)NC2=O)c1cc(F)cc(C(F)(F)F)c1 (stereo not drawn)
Response: ≤ 100 nM

Request: # repeat for Cc1ccccc1C1NC(=O)c2cccc(NC(=O)c3ccn4ccccc34)c21 (stereo not drawn)
Response: 100 to 500 nM

Request: # repeat for CNc1cc(NC(=O)N2C[C@@](O)(C(F)(F)F)c3cc(F)ccc32)c2c(c1)C(=O)N[C@@H]2c1cc(F)ccc1Cl (single isomer, unassigned)
Response: ≤ 100 nM

Request: # repeat for `O=C(Nc1cccc2c1[C@H](C1CCCCC1)NC2=O)c1cc(F)cc(C(F)(F)F)c1`
Response: 1000 to 10000 nM

Count: 3. Required value per item: IC50.
1. O=C1NC(c2cc(F)ccc2Cl)c2c(NC(=O)C34CC5CC(C3)CC(C(F)(F)F)(C5)C4)cc(Br)cc21 (stereo not drawn)
2. O=C(Nc1cc(-c2ccc3c(c2)OC(F)(F)O3)cc2c1C(c1cc(F)ccc1Cl)NC2=O)c1cc(F)cc(C(F)(F)F)c1 (stereo not drawn)
3. O=C(Nc1cc(Br)cc2c1C(c1cc(F)ccc1Cl)NC2=O)c1cc(F)cc2c1NC(=O)C2(F)F (stereo not drawn)

Response:
≤ 100 nM
100 to 500 nM
100 to 500 nM

Count: 8. Required value per item: IC50.
1. O=C(Nc1cc(Br)cc2c1C(c1cc(F)ccc1Cl)NC2=O)c1ccc[n+]([O-])c1 (stereo not drawn)
2. O=C(Nc1cc(-c2ccncc2F)cc2c1C(c1cc(F)ccc1Cl)NC2=O)c1cc(F)cc(C(F)(F)F)c1 (stereo not drawn)
3. Cc1ccccc1C1NC(=O)c2cc(CN)cc(NC(=O)c3cc(F)cc(C(F)(F)F)c3)c21 (stereo not drawn)
4. O=C(Nc1cc(-c2cccnc2)cc2c1[C@H](c1cc(F)ccc1Cl)NC2=O)c1cc(F)cc(C(F)(F)F)c1 (stereo in doubt)
5. CNc1cc(NC(=O)N2C[C@](O)(C(F)F)c3cc(F)ccc32)c2c(c1)C(=O)N[C@H]2c1cc(F)ccc1Cl (single isomer, unassigned)
6. CC(=O)N1CCCC(C2NC(=O)c3cccc(NC(=O)c4cc(F)cc(C(F)(F)F)c4)c32)C1 (racemic)
7. O=C1NC(c2cc(F)ccc2Cl)c2c(O)cc(-c3ccc4ncnn4c3)cc21 (stereo not drawn)
8. O=C(Nc1cccc2c1C(C1CCCOC1)NC2=O)c1cc(F)cc(C(F)(F)F)c1 (racemic)

Response:
1. 10000 to 100000 nM
2. ≤ 100 nM
3. 100 to 500 nM
4. 1000 to 10000 nM
5. 1000 to 10000 nM
6. 10000 to 100000 nM
7. 1000 to 10000 nM
8. 10000 to 100000 nM

Count: 5. Required value per item: IC50.
1. O=C(Nc1cccc2c1C(c1cc(F)ccc1C(F)F)NC2=O)c1cc(F)cc(C(F)(F)F)c1 (stereo not drawn)
2. O=C(Nc1cc(NC2=NCC(C(F)(F)F)O2)cc2c1C(c1cc(F)ccc1Cl)NC2=O)c1cc(F)cc(C(F)(F)F)c1 (stereo not drawn)
3. O=C(Nc1cc(CS(=O)(=O)Cc2cc[n+]([O-])cc2)cc2c1C(c1cc(F)ccc1Cl)NC2=O)c1cc(F)cc(C(F)(F)F)c1 (stereo not drawn)
4. O=C(Nc1cc(Br)cc2c1C(c1cc(F)ccc1Cl)NC2=O)c1cncc(Cl)c1 (stereo not drawn)
5. COc1cccc2scc(C(=O)Nc3cccc4c3C(c3ccccc3C)NC4=O)c12 (stereo not drawn)

Response:
1. ≤ 100 nM
2. ≤ 100 nM
3. ≤ 100 nM
4. 1000 to 10000 nM
5. 10000 to 100000 nM

====

System: H1047R PIK3CA enzyme (Homo sapiens, UniProt P42336, H1047R)
Assay Text: ADP-Glo Biochemical PIK3CA Kinase Assay
Quantity: IC50

// known answers, use as guide
Request: Consider the molecule shown here: `N#CCc1cc(NC(=O)c2cc(F)cc(C(F)(F)F)c2)c2c(c1)C(=O)N[C@@H]2c1cc(F)ccc1Cl` What is its recorded IC50?
Response: 0.1 to 0.5 µM

Request: # repeat for O=C(Nc1cc(-c2n[nH]c3cccnc23)cc2c1C(c1cc(F)ccc1Cl)NC2=O)c1cc(F)cc(C(F)(F)F)c1 (centres unmarked)
Response: ≤ 0.1 µM

Request: # repeat for `O=C(Nc1cc(-c2ccc3nnc(C(F)F)n3c2)cc2c1[C@H](c1cc(F)ccc1Cl)NC2=O)c1cc(F)cc(C(F)(F)F)c1`
Response: ≤ 0.1 µM

Count: 2. Required value per item: IC50.
1. O=C(Nc1cc(-c2ccc3ncnn3c2)cc2c1[C@H](c1cc(F)ccc1Cl)NC2=O)c1cc(F)cc(Cl)c1 (stereo in doubt)
2. O=C(Nc1cc(-c2ccc3ncnn3c2)nc2c1C(C1CCCCO1)NC2=O)c1cc(F)cc(C(F)(F)F)c1 (centres unmarked)

Response:
≤ 0.1 µM
10 to 100 µM

====

Assay Text: cells
Setup Conditions: Homo sapiens, MCF-10A, read-out: MCF10A IC50
Exercise: state measured IC50 for each of the compounds provided.

Request: Consider the compound shown here: O=C1N[C@@H](c2cc(F)ccc2Cl)c2c(NC(=O)N3C[C@@H](O)c4cc(F)ccc43)cccc21 (single isomer, unassigned) What is its recorded IC50?
Response: < 1 µM

Request: # repeat for CC(O)c1cc(NC(=O)N2CC(O)c3ccccc32)c2c(c1)C(=O)NC2c1cc(F)ccc1Cl (stereo not shown)
Response: 10 to 36 µM

Request: # repeat for N#CCc1cc(NC(=O)N2CC(O)(C(F)(F)F)c3ccccc32)c2c(c1)C(=O)NC2c1cc(F)ccc1Cl (mixture of isomers)
Response: < 1 µM

Request: # repeat for Cc1ccccc1C1NC(=O)c2cc(N)cc(NC(=O)c3cc(F)cc(C(F)(F)F)c3)c21 (stereo not shown)
Response: 1 to 5 µM

Request: # repeat for O=C1NC(c2cc(F)ccc2Cl)c2c(NC(=O)N3CC(O)(C(F)(F)F)c4cc(F)ccc43)cccc21 (stereo not shown)
Response: 1 to 5 µM

Count: 5. Required value per item: IC50.
1. O=C1NC(c2cc(F)ccc2Cl)c2c(NC(=O)N3CC(O)(C(F)F)c4cc(F)ccc43)cc(F)cc21 (stereo not shown)
2. O=C1NC(c2cc(F)ccc2Cl)c2c(NC(=O)N3CC(O)(C(F)(F)F)c4ccccc43)cc(Cl)cc21 (mixture of isomers)
3. O=C(Nc1cc(-c2n[nH]c3cccnc23)cc2c1C(c1cc(F)ccc1Cl)NC2=O)c1cc(F)cc(C(F)(F)F)c1 (stereo not shown)
4. O=C1N[C@H](c2cc(F)ccc2Cl)c2c(NC(=O)N3C[C@](O)(C(F)(F)F)c4cc(F)ccc43)ccc(Cl)c21 (single isomer, unassigned)
5. O=C(Nc1cc(-c2cnc3cnccn23)cc2c1C(c1cc(F)ccc1Cl)NC2=O)c1cc(F)cc(C(F)(F)F)c1 (stereo not shown)

Response:
1. 1 to 5 µM
2. < 1 µM
3. < 1 µM
4. < 1 µM
5. < 1 µM

Count: 3. Required value per item: IC50.
1. Cc1ccccc1C1NC(=O)c2cccc(NC(=O)c3csc4cnccc34)c21 (stereo not shown)
2. O=C1N[C@H](c2cc(F)ccc2Cl)c2c(NC(=O)N3C[C@H](O)c4c3ccc(F)c4F)cccc21 (single isomer, unassigned)
3. O=C1N[C@H](c2cc(F)ccc2Cl)c2c(NC(=O)N3C[C@](O)(C(F)F)c4cc(F)ccc43)cccc21 (single isomer, unassigned)

Response:
1. 10 to 36 µM
2. < 1 µM
3. < 1 µM
